Measured A23 (-), listed per entry.
assay: 23°C color optical density (A23): absorbancy difference ε(240)-ε(0) after 240 s light irradiation at 23°C; format: physicochemical; settings: binder sheet (binder method), 240 s irradiation

# molecule, observed
records = [
    ("COc1ccc(C2(c3ccc(OC)cc3)C=Cc3c4c(c5cc(N(C)c6ccc(F)cc6)c(OC)cc5c3O2)-c2ccccc2C4(C)C)cc1 [Example 4 Formula (34)]", "1.20 -"),
    ("COc1ccc(C2(c3ccc(OC)cc3)C=Cc3c4c(c5cc(N6CCOc7ccccc76)c(OC)cc5c3O2)-c2ccccc2C4(C)C)cc1 [Example 19 Formula (83)]", "1.36 -"),
    ("CCCC1(CCC)c2ccccc2-c2c1c1c(c3cc(OC)c(N(C)c4ccccc4)cc23)OC(c2ccc(OC)cc2)(c2ccc(OC)cc2)C=C1 [Example 3 Formula (32)]", "1.11 -"),
]

What does the record list as A23 (-) for CCCOc1ccc(C2(c3ccc(OCCC)cc3)C=Cc3c4c(c5cc(N6CCOc7cc(C)ccc76)c(OC)cc5c3O2)-c2ccc(-c3ccc(C(F)(F)F)cc3)cc2C4(CCOC)CCOC)cc1 [Example 48 Formula (106)] ?
1.39 -

Look up A23 (-): CCCCOc1ccc(C2(c3ccc(OC)cc3)C=Cc3c4c(c5cc(N(C)c6ccccc6)c(OC)cc5c3O2)-c2ccc(-c3ccc(C(C)(C)C)cc3)cc2C4(CC)CC)cc1 (stereo not drawn) [Example 45 Formula (94)]
1.24 -

What does the record list as A23 (-) for CCCOc1ccc(C2(c3ccc(OCCC)cc3)C=Cc3c4c(c5cc(N(c6ccc(C)cc6)c6ccc(C)cc6)c(OC)cc5c3O2)-c2ccccc2C4(CCCCOCOC)CCCCOCOC)cc1 [Example 14 Formula (71)] ?
1.93

====

experiment: Residual rate (A90/A0×100) after 90 h accelerated deterioration in xenon weather meter X25, color developing durability; format: physicochemical; conditions: binder sheet (binder method); xenon weather meter 90 hours
test readout: Residual rate (%)

# molecule, test readout, unit name, observed
data = [
    ("CCCCC1(CCCC)c2ccccc2-c2c1c1c(c3cc(OC)c(N(c4ccc(F)cc4)c4ccc(F)cc4)cc23)OC(c2ccc(OC)cc2)(c2ccc(OC)cc2)C=C1", "Residual rate (%)", "%", 94),
    ("CCCCOc1ccc(C2(c3ccc(OC)cc3)C=Cc3c4c(c5cc(N(C)c6ccccc6)c(OC)cc5c3O2)-c2ccc(-c3ccc(C(C)(C)C)cc3)cc2C4(CC)CC)cc1 (stereo not drawn)", "Residual rate (%)", "%", 92),
    ("COc1ccc(C2(c3ccc(N4CCOCC4)cc3)C=Cc3c4c(c5cc(N6CCOc7ccccc76)c(C)cc5c3O2)-c2ccc(OC)cc2C4(CCCCF)CCCCF)cc1 (stereo not drawn)", "Residual rate (%)", "%", 88),
    ("COc1ccc(C2(c3ccc(OC)cc3)C=Cc3c4c(c5cc(N6CCOc7ccccc76)c(OC)cc5c3O2)-c2ccccc2C4(C)C)cc1", "Residual rate (%)", "%", 91),
    ("COc1ccc(C2(c3ccc(OC)cc3)C=Cc3c4c(c5cc(N(c6ccccc6)c6ccccc6)c(OC)cc5c3O2)-c2ccccc2C4(C)C)cc1", "Residual rate (%)", "%", 94),
    ("CCCC1(CCC)c2ccccc2-c2c1c1c(c3cc(OC)c(N(c4ccccc4)c4ccc(C)cc4)cc23)OC(c2ccc(OC)cc2)(c2ccc(OC)cc2)C=C1", "Residual rate (%)", "%", 96),
    ("CCCC1(CCC)c2ccccc2-c2c1c1c(c3cc(OC)c(N4CCOc5ccccc54)cc23)OC(c2ccc(OC)cc2)(c2ccc(OC)cc2)C=C1", "Residual rate (%)", "%", 94),
    ("COc1ccc(C2(c3ccc(OC)cc3)C=Cc3c4c(c5cc(N(C)c6ccc(F)cc6)c(OC)cc5c3O2)-c2ccccc2C4(C)C)cc1", "Residual rate (%)", "%", 93),
    ("CCCC1(CCC)c2ccccc2-c2c1c1c(c3cc(OC)c(N(C)c4ccccc4)cc23)OC(c2ccc(OC)cc2)(c2ccc(OC)cc2)C=C1", "Residual rate (%)", "%", 97),
    ("CCCOc1ccc(C2(c3ccc(OCCC)cc3)C=Cc3c4c(c5cc(N(c6ccc(C)cc6)c6ccc(C)cc6)c(OC)cc5c3O2)-c2ccccc2C4(CCCCOCOC)CCCCOCOC)cc1", "Residual rate (%)", "%", 94),
    ("CCCOc1ccc(C2(c3ccc(OCCC)cc3)C=Cc3c4c(c5cc(N(C)c6ccc(C)cc6)c(OC)cc5c3O2)-c2ccccc2C4(CCCCOC)CCCCOC)cc1", "Residual rate (%)", "%", 93),
    ("CCCOc1ccc(C2(c3ccc(OCCC)cc3)C=Cc3c4c(c5cc(N(CCOC)c6ccccc6)c(OC)cc5c3O2)-c2ccccc2C42CCCCCCC2)cc1", "Residual rate (%)", "%", 94),
]
